experiment: BET inhibitor-based combinations targeting novel dependencies in MECOM-rearranged (r) AML: AML-194 cell line (AID 2202237; further: nearly all actives have a fitted effect of over 40% in size); settings: AML-194 (MECOM-r AML) viability, CellTiter-Glo, 48 h; series mostly up to 46 µM
Records with an inconclusive call do not appear. The source made the active and inactive calls. The call rests on the fitted dose curve; in most records, active means well fitted inhibition curve with a large enough effect; inconclusive means small, poorly fitted or top-dose-only effect; inactive means flat fitted curve, though single readings scatter.
Classes to choose from: Y (active), N (inactive)

Problem: Hi, do you know how `CC(C)(C#N)c1cc(Cn2cncn2)cc(C(C)(C)C#N)c1` came out in this test?
Result: N

Problem: Hi, do you know how `O=c1c(-c2ccc(O)cc2)coc2cc(O)ccc12` came out in this test?
Result: N

Problem: Hi, do you know how `C#CCN[C@@H]1CCc2ccccc21` came out in this test?
Result: N

Problem: Hi, do you know how `Cc1c(CCOc2ccc(C(=O)O)cc2)c2cc(Cl)ccc2n1C(c1ccccc1)c1ccccc1` came out in this test?
Result: N

Problem: Hi, do you know how `CC(=O)OC[C@@H]1O[C@@H](n2ccc(=O)[nH]c2=O)[C@H](OC(C)=O)[C@H]1OC(C)=O` came out in this test?
Result: N

Problem: Hi, do you know how `O=C(NCC(=O)N1CCCC1)Nc1ccc2cnccc2c1` came out in this test?
Result: N

Problem: Hi, do you know how `NC(=O)Nc1cc(-c2ccc(CN3CCOCC3)cc2)sc1C(N)=O` came out in this test?
Result: Y

Problem: Hi, do you know how CCC1=C(C)CN(C(=O)NCCc2ccc(S(=O)(=O)NC(=O)NC3CCC(C)CC3)cc2)C1=O (stereo not given) came out in this test?
Result: N

Problem: Hi, do you know how `CCN1CCN(Cc2ccc(NC(=O)c3ccc(C)c(NC(=O)c4cncc(-c5cccs5)c4)c3)cc2C(F)(F)F)CC1` came out in this test?
Result: Y

Problem: Hi, do you know how `CC(C)C(=O)Nc1ccc([N+](=O)[O-])c(C(F)(F)F)c1` came out in this test?
Result: N

###

target: Aldehyde dehydrogenase, mitochondrial (Homo sapiens) (UniProt P05091); test: qHTS for Inhibitors of the Aldehyde Dehydrogenase Family (ALDH2) Primary screen (AID 2061308); settings: ALDH2 enzyme inhibition qHTS, 1536-well; series mostly up to 56 µM;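 further: plate controls were vehicle for no effect and reference inhibitor for full effect; nearly all actives have a fitted effect of over 55% in size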
Records with an inconclusive call do not appear. Calls of active or inactive are those of the source. Calls follow the shape of the dose curve; as a rule, active = well fitted inhibition curve with a large enough effect; inconclusive = small, poorly fitted or top-dose-only effect; inactive = flat fitted curve, though single readings scatter.
Reported Property: activity change, negative = inhibition

As a guide, the following entries are already answered.
compound="CC12CCC3c4ccc(OC5OC(C(=O)O)C(O)C(O)C5O)cc4CCC3C1CCC2O (centres undefined)" reported_property="activity change, negative = inhibition" value_reported=inactive
compound=O=C(c1ccc(Nc2nccc(-c3cc4ccccc4s3)n2)cc1)N1CCC(N2CCCC2)CC1 reported_property="activity change, negative = inhibition" value_reported=inactive
compound=O=C(O)CCCc1c[nH]c2ccccc12 reported_property="activity change, negative = inhibition" value_reported=inactive
compound="CC(NCCCc1cccc(C(F)(F)F)c1)c1cccc2ccccc12 (centres undefined)" reported_property="activity change, negative = inhibition" value_reported=inactive
compound="CC1CCC2(C)C(CC(O)C(O)C23CO3)C1(C)CCC1=CC(O)OC1=O (centres undefined)" reported_property="activity change, negative = inhibition" value_reported=inactive
compound=Nc1nc(Nc2ccc(S(N)(=O)=O)cc2)n(C(=S)Nc2c(F)cccc2F)n1 reported_property="activity change, negative = inhibition" value_reported=inactive
compound=CC[C@H]1OC(=O)C[C@@H](O)[C@H](C)[C@@H](O[C@@H]2O[C@H](C)[C@@H](O)[C@H](N(C)C)[C@H]2O)[C@@H](CCN2C[C@H](C)C[C@H](C)C2)C[C@@H](C)C(=O)/C=C/C(C)=C/[C@@H]1CO[C@@H]1O[C@H](C)[C@@H](O)[C@@H](OC)[C@H]1OC reported_property="activity change, negative = inhibition" value_reported=inactive
compound=CNS(=O)(=O)c1ccccc1Nc1nc(Nc2ccc(N3CCN(C)CC3)cc2OC)ncc1Cl reported_property="activity change, negative = inhibition" value_reported=inactive

C=C1CC23CC1(O)CCC2C1=CC2OC(=O)C(C)(C2O)C1C3C(=O)O (centres undefined) on Aldehyde dehydrogenase, mitochondrial (Homo sapiens) (UniProt P05091) gives activity change, negative = inhibition = inactive

`CCN1CCN(Cc2ccc(NC(=O)c3ccc(C)c(Oc4ncnc5[nH]c(C)cc45)c3)cc2C(F)(F)F)CC1` on Aldehyde dehydrogenase, mitochondrial (Homo sapiens) (UniProt P05091) gives activity change, negative = inhibition = inactive

###

assay: BET inhibitor-based combinations targeting novel dependencies in MECOM-rearranged (r) AML: HNT-34 cell line (AID 2202234); settings: HNT-34 AML viability, CellTiter-Glo luminescence, 48 h; series mostly up to 46 µM; further: nearly all actives have a fitted effect of over 35% in size
Results filed as inconclusive are left out. The source made the active and inactive calls. Calls come from the whole dose curve; as a rule, active = well fitted inhibition curve with a large enough effect; inconclusive = small, poorly fitted or top-dose-only effect; inactive = no such curve, though single readings can be large or run the other way.
Classes to choose from: active, inactive

Problem: Hi, do you know how `CNC[C@H](O)c1cccc(O)c1` came out in this test?
Result: inactive

Problem: Hi, do you know how `COc1ccc(CCN2CCN(CCCc3ccccc3)CC2)cc1OC` came out in this test?
Result: inactive

Problem: Hi, do you know how `CNCCCC12CCC(c3ccccc31)c1ccccc12` came out in this test?
Result: active

Problem: Hi, do you know how `Cc1ccc(-c2ccc3c(ccc4sc5c(c43)NC[C@@H](C)NC5=O)n2)cn1` came out in this test?
Result: active

Problem: Hi, do you know how `CCN(CC)CCCCNc1ncc2c(n1)N(C)C(=O)N(c1c(Cl)c(OC)cc(OC)c1Cl)C2` came out in this test?
Result: active

Problem: Hi, do you know how `OC[C@@H](O)[C@@H](O)[C@H](O)[C@@H](O)CO` came out in this test?
Result: inactive

###

target: Aldehyde dehydrogenase, mitochondrial (Homo sapiens) (UniProt P05091); assay: qHTS for Inhibitors of the Aldehyde Dehydrogenase Family (ALDH2) Primary screen (AID 2061308); conditions: ALDH2 enzyme inhibition qHTS, 1536-well; series mostly up to 56 µM;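 further: plate controls were vehicle for no effect and reference inhibitor for full effect; nearly all actives have a fitted effect of over 55% in size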
Inconclusive results are not listed. Active and inactive are the calls of the source. Calls come from the whole dose curve; as a rule, active = well fitted inhibition curve with a large enough effect; inconclusive = small, poorly fitted or top-dose-only effect; inactive = flat fitted curve, though single readings scatter.
Reported Property: activity change, negative = inhibition

As a guide, the following entries are already answered.
compound=COc1c(/C=C/C(C)(C)O)ccc2c1C(=O)OCc1cc(C)cc(O)c1O2 assay_system="Aldehyde dehydrogenase, mitochondrial (Homo sapiens) (UniProt P05091)" value_reported=inactive
compound="C=C1CC23CC(=O)C4C(CO)(CO)CCCC4(C)C2CCC1C3 (stereo unspecified)" assay_system="Aldehyde dehydrogenase, mitochondrial (Homo sapiens) (UniProt P05091)" value_reported=inactive
compound=CCn1c(-c2nonc2N)nc2cncc(CNC3CCNCC3)c21 assay_system="Aldehyde dehydrogenase, mitochondrial (Homo sapiens) (UniProt P05091)" value_reported=inactive
compound="C[C@@H]1O[C@@H](O[C@H]2[C@H](O)[C@@H](C(=O)O)O[C@@H](O[C@H]3CC[C@@]4(C)C(CC[C@]5(C)C4CC=C4C6CC(C)(C)CC[C@]6(C(=O)O)CC[C@]45C)C3(C)C)[C@@H]2O[C@@H]2OC[C@@H](O)[C@H](O)[C@H]2O)[C@H](O)[C@H](O)[C@H]1O (stereo partly specified)" assay_system="Aldehyde dehydrogenase, mitochondrial (Homo sapiens) (UniProt P05091)" value_reported=inactive
compound=Cc1cn2cc(CC(=O)N3CCC4(CC3)CN(Cc3ccc(-n5nccn5)cc3Cl)C4)nc2s1 assay_system="Aldehyde dehydrogenase, mitochondrial (Homo sapiens) (UniProt P05091)" value_reported=inactive

# next compound below
CC1OC(O[C@H]2[C@@H](O)C[C@@]3(C)C([C@H](O)C[C@]4(C)C3CC=C3C5CC(C)(C)CC[C@]5(C(=O)OC5OC(CO)C(O)C(O)C5OC5OCC(OC6OCC(OC7OCC(O)C(O)C7O)C(O)C6O)C(OC6OCC(O)(CO)C6O)C5O)CC[C@]34C)[C@]2(C)CO)C(O)C(O)C1O (stereo partly specified) on Aldehyde dehydrogenase, mitochondrial (Homo sapiens) (UniProt P05091) gives activity change, negative = inhibition = -1.36% [at 11.2 µM] (inactive)

###

assay: BET inhibitor-based combinations targeting novel dependencies in MECOM-rearranged (r) AML: OCI-AML3 cell line (AID 2202232); conditions: CellTiter-Glo luminescence, 48 h; OCI-AML3 viability; series mostly up to 46 µM; further: nearly all actives have a fitted effect of over 35% in size
Inconclusive results are not listed. The source made the active and inactive calls. Calls come from the whole dose curve; as a rule, active = well fitted inhibition curve with a large enough effect; inconclusive = small, poorly fitted or top-dose-only effect; inactive = no such curve, though single readings can be large or run the other way.
Classes to choose from: label 1 = active, label 0 = inactive

Problem: Hi, do you know how CC(C)NCC(O)c1ccc(O)c(O)c1 (stereo unspecified) came out in this test?
Result: label 0

Problem: Hi, do you know how `O=C(O)c1cc(=O)[nH]c(=O)[nH]1` came out in this test?
Result: label 0

Problem: Hi, do you know how `CCCc1nc(C(C)(C)O)c(C(=O)O)n1Cc1ccc(-c2ccccc2-c2nn[nH]n2)cc1` came out in this test?
Result: label 0

Problem: Hi, do you know how `CCN1CCN(C(=O)N[C@@H](C(=O)N[C@@H]2C(=O)N3C(C(=O)O)=C(CSc4nnnn4C)CS[C@H]23)c2ccc(O)cc2)C(=O)C1=O` came out in this test?
Result: label 0

Problem: Hi, do you know how `CC(C)(N)C(=O)N[C@H](COCc1ccccc1)C(=O)N1CCC2(CC1)CN(S(C)(=O)=O)c1ccccc12` came out in this test?
Result: label 1

Problem: Hi, do you know how `CCCCOc1c(C(=O)c2c(F)cc(C)cc2F)cnc2n[nH]cc12` came out in this test?
Result: label 1

Problem: Hi, do you know how `O=C(Nc1cc(Cl)cc2c1[nH]c1cnccc12)c1cccnc1` came out in this test?
Result: label 0

Problem: Hi, do you know how `Cc1ccc2c(=O)c3cccc(CC(=O)O)c3oc2c1C` came out in this test?
Result: label 0

Problem: Hi, do you know how `CCOC(=O)C1=C[C@@H](OC(CC)CC)[C@H](NC(C)=O)[C@@H](N)C1` came out in this test?
Result: label 0

Problem: Hi, do you know how `CNNCc1ccc(C(=O)NC(C)C)cc1` came out in this test?
Result: label 0

Problem: Hi, do you know how C[C@@H](N)C1CCC(C(=O)Nc2ccncc2)CC1 (stereo partly specified) came out in this test?
Result: label 0

Problem: Hi, do you know how `O=S(=O)(O)CCS` came out in this test?
Result: label 0

Problem: Hi, do you know how `C[C@@H]1C[C@H]2[C@@H]3CCC4=CC(=O)C=C[C@]4(C)[C@@]3(F)[C@@H](O)C[C@]2(C)[C@@]1(O)C(=O)CO` came out in this test?
Result: label 0

Problem: Hi, do you know how `CCCOc1ccc2nc(NC(=O)OC)[nH]c2c1` came out in this test?
Result: label 1

Problem: Hi, do you know how `CC(=O)c1c(C)c2cnc(Nc3ccc(N4CCNCC4)cn3)nc2n(C2CCCC2)c1=O` came out in this test?
Result: label 1

Problem: Hi, do you know how `Nc1nc(F)nc2c1ncn2[C@@H]1O[C@H](CO)[C@@H](O)[C@@H]1O` came out in this test?
Result: label 1

Problem: Hi, do you know how `Cc1ccc([N+](=O)[O-])cc1S(=O)(=O)N(C)/N=C/c1cnc2ccc(Br)cn12` came out in this test?
Result: label 1

Problem: Hi, do you know how `CCN(CC)CCNC(=O)c1ccc2nc(-c3ccccc3)c(-c3ccc(CN4CCC(n5c(=O)[nH]c6ccccc65)CC4)cc3)nc2c1` came out in this test?
Result: label 1

Problem: Hi, do you know how `Oc1ccc(C2CCN(c3ccnc4ccccc34)CC2)cc1O` came out in this test?
Result: label 1

Problem: Hi, do you know how `NC(N)=NC(N)=NCCc1ccccc1` came out in this test?
Result: label 1

Problem: Hi, do you know how `COC(=O)N(C)c1c(N)nc(-c2nn(Cc3ccccc3F)c3ncccc23)nc1N` came out in this test?
Result: label 0

Problem: Hi, do you know how `CC(C)(C)C(=O)Oc1ccc(S(=O)(=O)Nc2ccccc2C(=O)NCC(=O)O)cc1` came out in this test?
Result: label 0

Problem: Hi, do you know how COc1ccc(-c2cc3c(C)nc(N)nc3n(C3CCC(OCCO)CC3)c2=O)cn1 (stereo unspecified) came out in this test?
Result: label 1

Problem: Hi, do you know how `c1cncc(CN2CCC(n3ncc4c(N5CCOCC5)nc(-c5ccc6[nH]ccc6c5)nc43)CC2)c1` came out in this test?
Result: label 1

Problem: Hi, do you know how `c1nc2nc(Nc3ccc(N4CCOCC4)cc3)nc(NC3CCCCC3)c2[nH]1` came out in this test?
Result: label 1

Problem: Hi, do you know how `O=C1CCc2cc(OCCCCc3nnnn3C3CCCCC3)ccc2N1` came out in this test?
Result: label 0

Problem: Hi, do you know how Cc1noc(-c2ccc(CSCCC(=O)O)cc2)c1NC(=O)OC(C)c1ccccc1Cl (stereo unspecified) came out in this test?
Result: label 0

Problem: Hi, do you know how `Cc1ccc(CN2CCNCC2)cc1NC(=O)CNc1ccc(F)c(F)c1` came out in this test?
Result: label 0

Problem: Hi, do you know how NCC1CCC(C(=O)O)CC1 (stereo unspecified) came out in this test?
Result: label 0

Problem: Hi, do you know how `COc1ccc2cccc(CCNC(C)=O)c2c1` came out in this test?
Result: label 0

Problem: Hi, do you know how `O=C1[C@H](Cc2ccc(O)cc2)N2C(=O)CCN(C(=O)NCc3ccccc3)[C@H]2CN1Cc1cccc2ccccc12` came out in this test?
Result: label 1

Problem: Hi, do you know how `CN1CC[C@@H](c2c(O)cc(O)c3c(=O)cc(-c4ccccc4Cl)oc23)[C@@H](O)C1` came out in this test?
Result: label 1

Problem: Hi, do you know how `COc1ncc(-c2ccc3c(Nc4cc(Oc5cc(F)cc(F)c5)cc(C(=O)O)c4)c(S(=O)(=O)NC4CC4)cnc3c2)c(OC)n1` came out in this test?
Result: label 0

Problem: Hi, do you know how O=C(C1CCCCC1)N1CC(=O)N2CCc3ccccc3C2C1 (stereo unspecified) came out in this test?
Result: label 0

Problem: Hi, do you know how Cn1c2cc(S(C)=O)sc2c2cnn(Cc3cccc(N)c3)c(=O)c21 (stereo unspecified) came out in this test?
Result: label 0

Problem: Hi, do you know how `CC(C)C(=O)Nc1ncc(-c2cc(C(F)F)nn2-c2c(Cl)cccc2Cl)s1` came out in this test?
Result: label 1

Problem: Hi, do you know how `Cc1cnc(-c2cnc(NCCNc3ccc(C#N)cn3)nc2-c2ccc(Cl)cc2Cl)[nH]1` came out in this test?
Result: label 0

Problem: Hi, do you know how O=C(O)CCC1CCC(c2cc(F)ccc2F)(S(=O)(=O)c2ccc(Cl)cc2)CC1 (stereo unspecified) came out in this test?
Result: label 0

Problem: Hi, do you know how `CS(=O)(=O)CCNCc1ccc(-c2ccc3ncnc(Nc4ccc(OCc5cccc(F)c5)c(Cl)c4)c3c2)o1` came out in this test?
Result: label 1

Problem: Hi, do you know how `COC(=O)Nc1ccc(-c2nc(N3CCOCC3)c3cnn(C4CCN(Cc5cccnc5)CC4)c3n2)cc1` came out in this test?
Result: label 1

Problem: Hi, do you know how `Cc1c(CN2CCN(S(C)(=O)=O)CC2)sc2c(N3CCOCC3)nc(-c3cnc(N)nc3)nc12` came out in this test?
Result: label 1
